// data source = BigSolDB 2.1

# condition.label: in ethanol, 288.2 K
measured.attribute: solubility (mole fraction)

INSERT INTO assay_data (smiles_data, experimental_result) VALUES
  ('C=C1CC[C@H](O)C/C1=C/C=C1\CCC[C@]2(C)[C@@H]([C@H](C)CCCC(C)C)CC[C@@H]12', 0.162);

----------
# condition.label: in sec-butanol, 298.2 K
measured.attribute: solubility (mole fraction)

INSERT INTO results (smiles_data, measured_attribute, experimental_result) VALUES
  ('C=C1CC[C@H](O)C/C1=C/C=C1\CCC[C@]2(C)[C@@H]([C@H](C)CCCC(C)C)CC[C@@H]12', 'solubility (mole fraction)', 0.187);

----------
# condition.label: in PEG-400, 273.2 K
measured.attribute: solubility (mole fraction)

INSERT INTO results (smiles_data, experimental_result) VALUES
  ('C=C1CC[C@H](O)C/C1=C/C=C1\CCC[C@]2(C)[C@@H]([C@H](C)CCCC(C)C)CC[C@@H]12', 0.0135);

----------
# condition.label: in transcutol, 273.2 K
measured.attribute: solubility (mole fraction)

INSERT INTO measurements (smiles_data, measured_attribute, experimental_result) VALUES
  ('C=C1CC[C@H](O)C/C1=C/C=C1\CCC[C@]2(C)[C@@H]([C@H](C)CCCC(C)C)CC[C@@H]12', 'solubility (mole fraction)', 0.369);

----------
# condition.label: in n-butanol, 273.2 K
measured.attribute: solubility (mole fraction)

INSERT INTO measurements (smiles_data, experimental_result) VALUES
  ('C=C1CC[C@H](O)C/C1=C/C=C1\CCC[C@]2(C)[C@@H]([C@H](C)CCCC(C)C)CC[C@@H]12', 0.151);

----------
# condition.label: in propylene glycol, 273.2 K
measured.attribute: solubility (mole fraction)

INSERT INTO assay_data (smiles_data, experimental_result) VALUES
  ('C=C1CC[C@H](O)C/C1=C/C=C1\CCC[C@]2(C)[C@@H]([C@H](C)CCCC(C)C)CC[C@@H]12', 0.00142);

----------
# condition.label: in propylene glycol, 288.2 K
measured.attribute: solubility (mole fraction)

INSERT INTO results (smiles_data, measured_attribute, experimental_result) VALUES
  ('C=C1CC[C@H](O)C/C1=C/C=C1\CCC[C@]2(C)[C@@H]([C@H](C)CCCC(C)C)CC[C@@H]12', 'solubility (mole fraction)', 0.00249);

----------
# condition.label: in ethyl acetate, 273.2 K
measured.attribute: solubility (mole fraction)

INSERT INTO measurements (smiles_data, measured_attribute, experimental_result) VALUES
  ('C=C1CC[C@H](O)C/C1=C/C=C1\CCC[C@]2(C)[C@@H]([C@H](C)CCCC(C)C)CC[C@@H]12', 'solubility (mole fraction)', 0.0904);

----------
# condition.label: in propylene glycol, 278.2 K
measured.attribute: solubility (mole fraction)

INSERT INTO results (smiles_data, experimental_result) VALUES
  ('C=C1CC[C@H](O)C/C1=C/C=C1\CCC[C@]2(C)[C@@H]([C@H](C)CCCC(C)C)CC[C@@H]12', 0.00176);

----------
# condition.label: in n-butanol, 288.2 K
measured.attribute: solubility (mole fraction)

INSERT INTO results (smiles_data, experimental_result) VALUES
  ('C=C1CC[C@H](O)C/C1=C/C=C1\CCC[C@]2(C)[C@@H]([C@H](C)CCCC(C)C)CC[C@@H]12', 0.169);
